- System: T-47D breast
- experiment: NCI tumour cell line growth inhibition, 48 h
metric-name: TGI (µM)

# smiles-structure, metric-name, comparative-sign, observed
measured = [
    ("COC(=O)CNC(=O)C(=O)c1c(O)c(O)c(C(C)C)c2cc(C)c(-c3c(C)cc4c(C(C)C)c(O)c(O)c(C(=O)C(=O)NCC(=O)OC)c4c3O)c(O)c12", "TGI", "=", 40.9),
    ("O=C1OC(c2ccc([N+](=O)[O-])cc2)=N/C1=C\\c1ccc(Cl)cc1", "TGI", ">", 100),
    ("COc1ccc(-c2nc(NC(=O)CS(=O)(=O)c3ccc(F)cc3)sc2C)cc1", "TGI", "=", 80.6),
    ("ClCCCN1CCN(CCCl)CC1", "TGI", ">", 745),
    ("Cc1cn(S(=O)(=O)c2ccccc2)c2c(OCc3ccccc3)cc([N+](=O)[O-])cc12", "TGI", ">", 100),
    ("CCN(Cc1cc(Cl)cc(C)c1O)Cc1c(O)ccc2ccccc12", "TGI", "=", 35.8),
]
